- Experimental system: 5HT-uptake (Rattus norvegicus, UniProt P31652)
- Construct: synaptosomes from rat brain regions were freshly isolated; from tissue; host or cells: P2 synaptosome fraction from rat brain regions
- Sequence (P31652 whole entry): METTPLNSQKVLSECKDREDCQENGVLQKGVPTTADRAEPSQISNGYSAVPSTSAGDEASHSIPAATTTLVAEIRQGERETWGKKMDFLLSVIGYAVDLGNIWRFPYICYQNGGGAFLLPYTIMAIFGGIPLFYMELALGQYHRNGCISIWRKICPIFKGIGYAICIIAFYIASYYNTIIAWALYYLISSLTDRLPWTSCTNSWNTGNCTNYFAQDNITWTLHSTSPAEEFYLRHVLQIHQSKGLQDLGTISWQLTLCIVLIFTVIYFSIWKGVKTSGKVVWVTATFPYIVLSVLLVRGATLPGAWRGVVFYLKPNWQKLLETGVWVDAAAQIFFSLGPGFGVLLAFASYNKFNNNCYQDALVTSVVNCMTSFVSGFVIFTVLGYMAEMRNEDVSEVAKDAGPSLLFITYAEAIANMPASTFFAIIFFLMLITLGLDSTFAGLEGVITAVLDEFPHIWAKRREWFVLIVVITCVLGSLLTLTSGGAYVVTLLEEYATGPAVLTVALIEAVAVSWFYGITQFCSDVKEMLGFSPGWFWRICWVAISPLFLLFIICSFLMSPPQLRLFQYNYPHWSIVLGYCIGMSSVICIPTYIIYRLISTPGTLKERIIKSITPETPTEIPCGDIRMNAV
- Protocol description: Serotonin uptake inhibition (5HT uptake) in synaptosomes
- Format: biochemical
- Condition notes: rat brain synaptosomes

| Substance smiles | Units of measure | inhibition at 10 µM |
| --- | --- | --- |
| CC(=O)NCCNC(=O)C1=NOC2(CCN(S(=O)(=O)c3cc(F)ccc3C)CC2)C1 | % | 46 |
| CCCCCC(=O)N1CCC2(CC1)CC(C(=O)NCC1CC1)=NO2 | % | 42 |
| N#CCCN(Cc1cccnc1)C(=O)C1=NOC2(CCN(S(=O)(=O)c3cc(Cl)ccc3Cl)CC2)C1 | % | 44 |
| Cc1ccc(S(=O)(=O)N2CCC3(CC2)CC(C(=O)NCCN(C)C)=NO3)cc1 | % | 41 |
| CN(Cc1cccnc1)C(=O)C1=NOC2(CCN(S(=O)(=O)c3cc(Cl)ccc3Cl)CC2)C1 | % | 51 |
| CN(C)S(=O)(=O)N1CCC2(CC1)CC(C(=O)N1CCN(c3ncnc4sccc34)CC1)=NO2 | % | 54 |
| CN(C)S(=O)(=O)N1CCC2(CC1)CC(C(=O)N1CCN(C3CCCCCC3)CC1)=NO2 | % | 41 |

* * *

Reported 5HT-uptake, 10 μM, % inhibition is given for each of the following molecules.
- Experimental system: 5HT-uptake (Rattus norvegicus, UniProt P31652)
- Construct: synaptosomes from rat brain regions were freshly isolated; from tissue; host or cells: P2 synaptosome fraction from rat brain regions
- Protocol description: Serotonin uptake inhibition (5HT uptake) in synaptosomes
- Assay type: biochemical
- Condition notes: rat brain synaptosomes
Measurement kind: 5HT-uptake, 10 μM, % inhibition (%)

| Molecule | Measurement kind | Value measured |
| --- | --- | --- |
| COc1ccc(C(=O)N2CCC3(CC2)CC(C(=O)NCc2ccc(C)o2)=NO3)cc1 | 5HT-uptake, 10 μM, % inhibition | 45 |
| O=C(C1=NOC2(CCN(S(=O)(=O)Cc3ccccc3)CC2)C1)N1CCN(Cc2ccc3ccccc3c2)CC1 | 5HT-uptake, 10 μM, % inhibition | 54 |
| COc1cc(OC)cc(N2CCN(C(=O)C3=NOC4(CCN(S(=O)(=O)c5ccc(Cl)s5)CC4)C3)CC2)c1 | 5HT-uptake, 10 μM, % inhibition | 43 |
| C=CCOC(=O)C(CC(=O)OC(C)(C)C)NC(=O)C1=NOC2(CCN(S(=O)(=O)c3cc(Cl)ccc3Cl)CC2)C1 (stereo not drawn) | 5HT-uptake, 10 μM, % inhibition | 53 |
| CCCC(=O)N1CCC2(CC1)CC(C(=O)NC1CCN(C(=O)OCC)CC1)=NO2 | 5HT-uptake, 10 μM, % inhibition | 43 |
| COc1ccc(S(=O)(=O)N2CCC3(CC2)CC(C(=O)NCCc2ccccc2F)=NO3)cc1 | 5HT-uptake, 10 μM, % inhibition | 41 |
| O=C(C1=NOC2(CCN(S(=O)(=O)c3cccs3)CC2)C1)N1CCN(CCCc2ccccc2)CC1 | 5HT-uptake, 10 μM, % inhibition | 78 |
| Cc1ccc(S(=O)(=O)N2CCC3(CC2)CC(C(=O)N2CCN(c4ccc(C)cc4C)CC2)=NO3)cc1 | 5HT-uptake, 10 μM, % inhibition | 57 |
| CC1CCCCN1CCCNC(=O)C1=NOC2(CCN(S(=O)(=O)c3cc(Cl)ccc3Cl)CC2)C1 (stereo not drawn) | 5HT-uptake, 10 μM, % inhibition | 55 |
| O=C(C1=NOC2(CCN(S(=O)(=O)c3cccs3)CC2)C1)N1CCN(C2CCCCCC2)CC1 | 5HT-uptake, 10 μM, % inhibition | 51 |
| CCSCCNC(=O)C1=NOC2(CCN(S(=O)(=O)N(C)C)CC2)C1 | 5HT-uptake, 10 μM, % inhibition | 44 |
| Cc1cccc(N2CCN(C(=O)C3=NOC4(CCN(S(=O)(=O)c5cccs5)CC4)C3)CC2C)c1 (stereo not drawn) | 5HT-uptake, 10 μM, % inhibition | 69 |
| O=C(Cc1ccc(F)c(F)c1)N1CCN(C(=O)C2=NOC3(CCN(S(=O)(=O)c4cccc(C(F)(F)F)c4)CC3)C2)CC1 | 5HT-uptake, 10 μM, % inhibition | 42 |
| CCOC(=O)N1CCC(NC(=O)C2=NOC3(CCN(C(=O)c4ccc(Br)cc4)CC3)C2)CC1 | 5HT-uptake, 10 μM, % inhibition | 73 |
| O=C(C1=NOC2(CCN(S(=O)(=O)c3cccc(C(F)(F)F)c3)CC2)C1)N1CCN(Cc2ccc3ccccc3c2)CC1 | 5HT-uptake, 10 μM, % inhibition | 44 |
| CCOP(=O)(Cc1ccc(NC(=O)C2=NOC3(CCN(S(=O)(=O)Cc4ccccc4)CC3)C2)cc1)OCC | 5HT-uptake, 10 μM, % inhibition | 55 |
| N#CCCN(CC1CCCO1)C(=O)C1=NOC2(CCN(S(=O)(=O)c3cc(Cl)ccc3Cl)CC2)C1 (stereo not drawn) | 5HT-uptake, 10 μM, % inhibition | 43 |
| COC(=O)C(Cc1c[nH]c2ccccc12)NC(=O)C1=NOC2(CCN(S(=O)(=O)c3ccc(OC(F)(F)F)cc3)CC2)C1 (stereo not drawn) | 5HT-uptake, 10 μM, % inhibition | 47 |
| COc1cccc(CN2CCC(NC(=O)C3=NOC4(CCN(S(=O)(=O)c5cc(Cl)ccc5Cl)CC4)C3)C2)c1 (stereo not drawn) | 5HT-uptake, 10 μM, % inhibition | 61 |
| O=C(C1=NOC2(CCN(S(=O)(=O)c3cc(Cl)ccc3Cl)CC2)C1)N1CCN(c2ncnc3sccc23)CC1 | 5HT-uptake, 10 μM, % inhibition | 42 |
| COc1ccc(OC)c(CN(Cc2ccco2)C(=O)C2=NOC3(CCN(S(=O)(=O)c4ccc(F)cc4)CC3)C2)c1 | 5HT-uptake, 10 μM, % inhibition | 50 |

* * *

- Experimental system: NA transporter (Rattus norvegicus, UniProt Q9WTR4)
- Construct: synaptosomes from rat brain regions were freshly isolated; from tissue; host or cells: P2 synaptosome fraction from hypothalamus of male rat brain
- Sequence (Q9WTR4 1-597): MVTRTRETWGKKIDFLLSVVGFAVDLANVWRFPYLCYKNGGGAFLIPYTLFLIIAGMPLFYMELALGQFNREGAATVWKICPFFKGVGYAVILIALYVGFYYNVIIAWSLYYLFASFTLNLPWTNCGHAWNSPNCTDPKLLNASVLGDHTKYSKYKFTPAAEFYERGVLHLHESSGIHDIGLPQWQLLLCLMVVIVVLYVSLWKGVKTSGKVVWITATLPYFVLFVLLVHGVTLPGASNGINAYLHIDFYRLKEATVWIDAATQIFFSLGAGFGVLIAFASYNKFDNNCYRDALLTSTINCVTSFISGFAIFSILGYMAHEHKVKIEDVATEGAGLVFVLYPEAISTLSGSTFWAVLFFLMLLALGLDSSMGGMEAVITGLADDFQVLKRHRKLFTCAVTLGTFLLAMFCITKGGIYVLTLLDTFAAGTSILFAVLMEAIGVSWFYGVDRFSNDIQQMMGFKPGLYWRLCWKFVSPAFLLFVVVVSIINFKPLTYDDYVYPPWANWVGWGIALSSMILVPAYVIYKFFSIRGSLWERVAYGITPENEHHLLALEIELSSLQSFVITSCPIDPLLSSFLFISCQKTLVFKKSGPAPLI
- Protocol description: Noradrenalin uptake inhibition (NA-uptake) in synaptosomes
- Assay type: biochemical
- Condition notes: rat hypothalamus synaptosomes
inhibition at 10 µM listing for selected compounds.

| Compound | Units of measure | inhibition at 10 µM |
| --- | --- | --- |
| COC(=O)c1ccccc1S(=O)(=O)N1CCC2(CC1)CC(C(=O)NCC(C)C)=NO2 [Example 138] | % | 49 |
| O=C(NC1CCN(Cc2ccc3ccccc3c2)C1)C1=NOC2(CCN(S(=O)(=O)c3ccc(Cl)s3)CC2)C1 (stereo not shown) [Example 50] | % | 50 |
| COc1cccc(CCNC(=O)C2=NOC3(CCN(S(=O)(=O)c4ccc(F)cc4)CC3)C2)c1 [Example 124] | % | 49 |
| CC(C)CNC(=O)C1=NOC2(CCN(C(=O)c3cccc4ccccc34)CC2)C1 [Example 178] | % | 51 |
